Tested on: HOP-62 complex spheroids with HUVEC/MSC, viability
Method: Anticancer human tumor HOP-62 cell line growth inhibition [RAS];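 also: spheroids exposed to agents for seven days before readout; 100% = DMSO vehicle control viability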
Recorded conditions: second compound 1 µM; first compound 0.000949 µM; stronger effect = lower value
Excerpt: RAS pathway inhibitors in Combinations in Complex Spheroids A high-throughput screen of multi-cell type tumor spheroids was designed to identify active combinations of RAS pathway inhibitors and targeted small molecules. Complex spheroids include a stromal component modeled by human endothelial cells (HUVEC) and fibroblasts modeled by human mesenchymal stem cells (MSCs). […] Compounds. […] If the clinical Cmax for an agent had not been determined, the highest concentration tested was 10 microM. […]
Reported viability, T/C values follow for various molecules
Readout name: viability, T/C (%)

[[record]]
molecule = "CCc1c2c(nc3ccc(O)cc13)-c1cc3c(c(=O)n1C2)COC(=O)[C@]3(O)CC + C#Cc1c(F)ccc2cc(O)cc(-c3ncc4c(N5CC6CCC(C5)N6)nc(OCC56CCCN5CC(F)C6)nc4c3F)c12"
recorded_number = 60.8

[[record]]
molecule = "CC1(C)CCC(Nc2ncc(C(F)(F)F)c(-c3c[nH]c4c(P(C)(C)=O)c(C#N)ccc34)n2)CN1 (centres undefined) + C=CC(=O)N1CCN(c2nc(OCC3CCCN3C)nc3c(F)c(-c4nc(N)cc(C)c4C(F)(F)F)c(Cl)cc23)C(C)C1"
recorded_number = 50.3

[[record]]
molecule = "CCc1c2c(nc3ccc(O)cc13)-c1cc3c(c(=O)n1C2)COC(=O)[C@]3(O)CC + C=CC(=O)N1CCN(c2nc(OCC3CCCN3C)nc3c(F)c(-c4nc(N)cc(C)c4C(F)(F)F)c(Cl)cc23)C(C)C1"
recorded_number = 43.2

[[record]]
molecule = "CC1(C)CCC(Nc2ncc(C(F)(F)F)c(-c3c[nH]c4c(P(C)(C)=O)c(C#N)ccc34)n2)CN1 (centres undefined) + C#Cc1c(F)ccc2cc(O)cc(-c3ncc4c(N5CC6CCC(C5)N6)nc(OCC56CCCN5CC(F)C6)nc4c3F)c12"
recorded_number = 75.3

